Test system: NCI-H1650
ASSAY INFO: relative viability (nuclei count vs DMSO), 5 days (fraction); higher = more cells survive
CONDITIONS: first compound 0.01581 µM
Label label 1 when relative viability is strictly below 0.6; at or above that, label label 0.

Past entries and their recorded results:
compound="CC1(C)CCC(c2ccc(Cl)cc2)=C(CN2CCN(c3ccc(C(=O)NS(=O)(=O)c4ccc(N[C@H](CCN5CCOCC5)CSc5ccccc5)c(S(=O)(=O)C(F)(F)F)c4)cc3)CC2)C1 [Navitoclax] + CCNC(=O)c1noc(-c2cc(C(C)C)c(O)cc2O)c1-c1ccc(CN2CCOCC2)cc1 [Luminespib] (partner 0.01 µM)" assayed_target=NCI-H1650 label="label 1"
compound="CC1(C)CCC(c2ccc(Cl)cc2)=C(CN2CCN(c3ccc(C(=O)NS(=O)(=O)c4ccc(N[C@H](CCN5CCOCC5)CSc5ccccc5)c(S(=O)(=O)C(F)(F)F)c4)cc3)CC2)C1 [Navitoclax] + CS(=O)(=O)N1CCN(Cc2cc3nc(-c4cccc5[nH]ncc45)nc(N4CCOCC4)c3s2)CC1 [Pictilisib] (partner 1 µM)" assayed_target=NCI-H1650 label="label 0"
compound="CC1(C)CCC(c2ccc(Cl)cc2)=C(CN2CCN(c3ccc(C(=O)NS(=O)(=O)c4ccc(N[C@H](CCN5CCOCC5)CSc5ccccc5)c(S(=O)(=O)C(F)(F)F)c4)cc3)CC2)C1 [Navitoclax] + Nc1ncn([C@H]2C[C@H](O)[C@@H](CO)O2)c(=O)n1 [Decitabine] (partner 2 µM)" assayed_target=NCI-H1650 label="label 1"

Given the entry CC1(C)CCC(c2ccc(Cl)cc2)=C(CN2CCN(c3ccc(C(=O)NS(=O)(=O)c4ccc(N[C@H](CCN5CCOCC5)CSc5ccccc5)c(S(=O)(=O)C(F)(F)F)c4)cc3)CC2)C1 [Navitoclax] + COc1cc2c(Oc3ccc(NC(=O)C4(C(=O)Nc5ccc(F)cc5)CC4)cc3F)ccnc2cc1OCCCN1CCOCC1 [Foretinib] (partner 0.25 µM) , would its reported relative viability be below 0.6?
label 0
